Values were extracted from the OPERA property sets (Mansouri et al. 2018).

logP under 2 gets true, anything at or over 2 gets false.

# example entries with known answers
CCOC1(c2ccccc2)CN(C)CC(C)O1 (centres undefined)
false
CCCOC1(c2ccccc2)CN(C)CCO1 (centres undefined)
false
CCCCOC1(c2ccccc2)CN(C)CCO1 (centres undefined)
false
CC1CN(C)CC(O)(c2ccccc2)O1 (centres undefined)
true
C=CCOC1(c2ccccc2)CN(C)CCO1 (centres undefined)
false

In: I'd appreciate it if you could check whether CC1C(c2ccccc2)OC(O)(c2ccccc2)CN1C (centres undefined) has logP smaller than 2.
Out: true

In: I'd appreciate it if you could check whether CC(C)COC1(c2ccccc2)CN(C)CCO1 (centres undefined) has logP smaller than 2.
Out: false

In: I'd appreciate it if you could check whether CN1CCOC(O)C1c1ccccc1 (centres undefined) has logP smaller than 2.
Out: true

In: I'd appreciate it if you could check whether CCOC1(c2ccccc2)OCCN(C)C1C (centres undefined) has logP smaller than 2.
Out: false

In: I'd appreciate it if you could check whether CN1CCOC(O)(c2cccc(C(F)(F)F)c2)C1 (centres undefined) has logP smaller than 2.
Out: true

In: I'd appreciate it if you could check whether C#CCOC1(c2ccccc2)CN(C)CCO1 (centres undefined) has logP smaller than 2.
Out: true

In: I'd appreciate it if you could check whether CN1CCOC(O)(c2ccc(Br)cc2)C1 (centres undefined) has logP smaller than 2.
Out: true

In: I'd appreciate it if you could check whether CN1CCOC(O)(c2ccccc2)C1 (centres undefined) has logP smaller than 2.
Out: true

In: I'd appreciate it if you could check whether CC1N(C)CCOC1(O)c1ccccc1 (centres undefined) has logP smaller than 2.
Out: true
